Reference source for all entries: patent US20150259331A1

Tested on: P. falciparum D6
Assay: P. falciparum D6 assay
Assay type: cell-based
Conditions: strain D6
Reported Endpoint: log10 EC50 (log10 of the value in nM)
Base-10 log of EC50, unit nM.

[[record]]
compound = "O=S(=O)(c1ccc(-c2ccc3ncnc(Nc4ccc(OCc5cccc(F)c5)c(Cl)c4)c3c2)cc1)N1CCNCC1 [Compound 10s]"
obs_value = 1.97


Turning to the following compound.
[ask] For the compound Fc1cccc(COc2ccc(Nc3ncnc4ccc(-c5ccc(N6CCNCC6)cc5)cc34)cc2Cl)c1 , report log10 EC50.
[reply] 2.58

====

Each item that follows carries a reported log10 of EC50.
System: L. major promastigote
Test: L. major promastigote assay
Type: cell-based
Base-10 log of EC50, unit µM.

[[record]]
molecule = "COc1ccc(Nc2ncnc3ccc(-c4ccc(S(=O)(=O)N5CCN(C)CC5)cc4)cc23)cc1Cl"
reported_endpoint = "log10 of EC50"
obs_value = 0.77

[[record]]
molecule = "CN1CCCN(S(=O)(=O)c2ccc(-c3ccc4ncc(C#N)c(Nc5ccc(OCc6cccc(F)c6)c(Cl)c5)c4c3)cc2)CC1"
reported_endpoint = "log10 of EC50"
obs_value = -0.04

[[record]]
molecule = "CN1CCN(S(=O)(=O)c2ccc(-c3ccc4ncnc(Nc5ccc(OCc6ccccc6)c(Cl)c5)c4c3)cc2)CC1"
reported_endpoint = "log10 of EC50"
obs_value = 0.53


[ask] For the molecule Fc1cccc(COc2ccc(Nc3ncnc4ccc(-c5cccc(CN6CCCCC6)c5)cc34)cc2Cl)c1 [Compound 23i] , report log10 of EC50.
[reply] 0.40

[ask] For the molecule CN1CCN(c2cccc(-c3ccc4ncnc(Nc5ccc(OCc6cccc(F)c6)c(Cl)c5)c4c3)c2)CC1 , report log10 of EC50.
[reply] 0.28

====

System: P. falciparum D6
Assay: P. falciparum D6 assay
Format: cell-based
Conditions: strain D6
Values of EC50 strictly less than 100 nM map to y, and values of at least 100 nM map to n.

[ask] Quick check: EC50 of Fc1cccc(COc2ccc(Nc3ncnc4ccc(-c5ccc(CN6CCOCC6)cc5)cc34)cc2Cl)c1 [Compound 23d] under 100 nM?
[reply] y

[ask] Quick check: EC50 of CN(C)c1cccc(-c2ccc3ncnc(Nc4ccc(OCc5cccc(F)c5)c(Cl)c4)c3c2)c1 [NEU-708] under 100 nM?
[reply] n

[ask] Quick check: EC50 of CN1CCN(c2cccc(-c3ccc4ncnc(Nc5ccc(OCc6cccc(F)c6)c(Cl)c5)c4c3)c2)CC1 [NEU-714] under 100 nM?
[reply] y

[ask] Quick check: EC50 of CN1CCN(S(=O)(=O)c2ccc(-c3ccc4ncnc(Nc5ccc(OCc6ccccc6)c(Cl)c5)c4c3)cc2)CC1 [NEU-764] under 100 nM?
[reply] y

[ask] Quick check: EC50 of Fc1cccc(COc2ccc(Nc3ncnc4ccc(-c5ccc(CN6CCCCC6)cc5)cc34)cc2Cl)c1 [Compound 23j] under 100 nM?
[reply] y

[ask] Quick check: EC50 of CN1CCN(S(=O)(=O)c2ccc(-c3ccc4ncnc(Nc5ccc(Cl)cc5)c4c3)cc2)CC1 [NEU-769] under 100 nM?
[reply] n

[ask] Quick check: EC50 of CN1CCN(S(=O)(=O)c2ccc(-c3ccc4ncnc(Nc5ccccc5)c4c3)cc2)CC1 [NEU-767] under 100 nM?
[reply] n

[ask] Quick check: EC50 of CN1CCN(S(=O)(=O)c2ccc(-c3ccc4ncnc(Nc5ccc(F)cc5)c4c3)cc2)CC1 [NEU-768] under 100 nM?
[reply] n
